Values compiled from patent US20230043863A1.

Measured Tmax by item
- method: Balb/C mouse pharmacokinetics (plasma, colon, ileum)
- Type: in vivo
- cond: male, plasma, po, Balb/C mice, p.o. 5 mg/kg, blood, read-out: Time to peak tmax
- Protocol: […] The main pharmacokinetic parameters were calculated with WinNonlin 6.1, and the results of mouse pharmacokinetic experiments are shown in Table 3: […]
Reply with just the number (in h).

Examples with answers:
compound smiles: COc1ccc2c(Nc3cc(C)[nH]n3)nc(N[C@@H]3C[C@H]4CC[C@@H](C3)N4CCC#N)nc2c1
unit descriptor: h
reported: 0.5
--
compound smiles: Cc1cc(Nc2nc(N[C@@H]3C[C@H]4CC[C@@H](C3)N4C(=O)CN3CCOCC3)nc3sccc23)n[nH]1
unit descriptor: h
reported: 3
--
compound smiles: Cc1cc(Nc2nc(N[C@@H]3C[C@H]4CCC[C@@H](C3)N4C(=O)c3ccccn3)nc3sccc23)n[nH]1
unit descriptor: h
reported: 1
--
compound smiles: Cc1cc(Nc2nc(NC3CCN(CCC#N)CC3)nc3sccc23)n[nH]1
unit descriptor: h
reported: 1
--
compound smiles: Cc1cc(Nc2nc(N[C@@H]3C[C@H]4CCC[C@@H](C3)N4CCC#N)nc3scnc23)n[nH]1
unit descriptor: h
reported: 0.5
--
compound smiles: Cc1cc(Nc2nc(N(C)[C@@H]3C[C@H]4CCC[C@@H](C3)N4C(=O)CN3CCN(C)CC3)nc3sccc23)n[nH]1
unit descriptor: h
reported: 1

We next turn to a different compound, shown below.
Req: Fill in reported Tmax for this entry: Cc1cc(Nc2nc(N[C@@H]3C[C@H]4CC[C@@H](C3)N4S(=O)(=O)N3CC(C#N)C3)nc3ccccc23)n[nH]1
Resp: 3
